Retinal dehydrogenase 2 (Homo sapiens, UniProt O94788): recorded pIC50 for assorted molecules
Sequence (O94788 whole entry): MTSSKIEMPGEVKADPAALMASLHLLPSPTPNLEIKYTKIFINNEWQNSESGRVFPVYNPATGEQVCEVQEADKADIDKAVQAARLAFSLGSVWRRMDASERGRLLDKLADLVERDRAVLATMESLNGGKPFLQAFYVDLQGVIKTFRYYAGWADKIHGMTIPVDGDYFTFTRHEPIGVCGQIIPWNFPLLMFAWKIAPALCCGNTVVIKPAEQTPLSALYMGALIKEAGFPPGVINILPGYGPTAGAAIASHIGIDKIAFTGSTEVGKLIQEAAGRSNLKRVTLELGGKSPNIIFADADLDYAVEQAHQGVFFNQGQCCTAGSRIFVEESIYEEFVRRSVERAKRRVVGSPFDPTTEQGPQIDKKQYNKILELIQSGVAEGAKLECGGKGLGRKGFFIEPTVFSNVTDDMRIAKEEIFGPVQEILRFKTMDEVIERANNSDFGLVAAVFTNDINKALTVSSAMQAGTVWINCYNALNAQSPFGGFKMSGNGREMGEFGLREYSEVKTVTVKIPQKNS
pIC50: −log10 of the molar value.
MEASURED ATTRIBUTE: pIC50

[
  {
    "CHEMICAL STRUCTURE": "O=C1CCc2cc(NC(=O)c3scnc3-c3ccccc3F)ccc2N1",
    "VALUE RELATION SIGN": "=",
    "RECORDED NUMBER": 6.00
  },
  {
    "CHEMICAL STRUCTURE": "O=C1CCc2cc(NC(=O)c3sc(N4CCOCC4)nc3-c3cccc(F)c3)ccc2N1",
    "VALUE RELATION SIGN": "≤",
    "RECORDED NUMBER": 4.00
  },
  {
    "CHEMICAL STRUCTURE": "CN(C)c1nc(-c2cccc(F)c2)c(C(=O)Nc2ccc3c(c2)CCC(=O)N3)s1",
    "VALUE RELATION SIGN": "=",
    "RECORDED NUMBER": 6.00
  },
  {
    "CHEMICAL STRUCTURE": "O=C1CCc2cc(OCCN3CCC[C@@H]3c3cccc(F)c3)ccc2N1",
    "VALUE RELATION SIGN": "=",
    "RECORDED NUMBER": 7.00
  }
]

###

# ASSAYED SYSTEM: Retinaldehyde dehydrogenase 3 (Homo sapiens, UniProt P47895)
# Sequence (P47895 whole entry): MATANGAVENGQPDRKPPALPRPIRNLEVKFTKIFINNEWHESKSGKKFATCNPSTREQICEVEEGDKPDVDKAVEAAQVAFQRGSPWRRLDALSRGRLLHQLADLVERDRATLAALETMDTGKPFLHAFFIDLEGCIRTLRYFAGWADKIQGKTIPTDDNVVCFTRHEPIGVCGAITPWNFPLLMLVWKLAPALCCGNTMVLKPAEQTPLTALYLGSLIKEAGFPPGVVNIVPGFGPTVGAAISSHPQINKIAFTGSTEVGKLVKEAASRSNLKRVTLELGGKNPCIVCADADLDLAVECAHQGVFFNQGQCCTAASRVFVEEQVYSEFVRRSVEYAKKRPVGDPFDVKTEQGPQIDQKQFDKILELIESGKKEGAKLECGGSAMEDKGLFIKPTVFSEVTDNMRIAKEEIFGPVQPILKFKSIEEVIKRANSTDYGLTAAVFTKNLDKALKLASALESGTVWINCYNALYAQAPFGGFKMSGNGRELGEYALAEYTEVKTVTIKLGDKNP
# ASSAY EXPLANATION: Inhibition of full length human ALDH1A3 using propionaldehyde as substrate preincubated for 30 mins followed by substrate addition and measured after 30 mins in presence of NAD by luminescence microplate reader analysis
pIC50: −log10 of the molar value.
List of pIC50 values.
MEASURED ATTRIBUTE: pIC50

[
  {
    "COMPOUND": "O=C1CCc2cc(OCCN3CCCC3c3cccc(F)c3)ccc2N1 (stereo not drawn)",
    "RESULT": "> 7.00"
  },
  {
    "COMPOUND": "O=C1CCc2cc(OCCN3CCC[C@@H]3c3cccc(F)c3)ccc2N1",
    "RESULT": "> 7.00"
  },
  {
    "COMPOUND": "O=C1CCc2cc(NC(=O)c3scnc3-c3ccccc3F)ccc2N1",
    "RESULT": "> 7.00"
  },
  {
    "COMPOUND": "O=C1CCc2cc(NC(=O)c3sc(N4CCOCC4)nc3-c3cccc(F)c3)ccc2N1",
    "RESULT": "> 7.00"
  },
  {
    "COMPOUND": "O=C1CCc2cc(NC(=O)c3sc(N4CC(O)C4)nc3-c3cccc(F)c3)ccc2N1",
    "RESULT": "> 7.00"
  },
  {
    "COMPOUND": "O=C1CCc2cc(NC(=O)c3sc(N4CCNCC4)nc3-c3cccc(F)c3)ccc2N1",
    "RESULT": "> 7.00"
  },
  {
    "COMPOUND": "CN(C)c1nc(-c2cccc(F)c2)c(C(=O)Nc2ccc3c(c2)CCC(=O)N3)s1",
    "RESULT": "> 7.00"
  },
  {
    "COMPOUND": "O=C1CCc2cc(NC(=O)c3scnc3-c3cccc(F)c3)ccc2N1",
    "RESULT": "> 7.00"
  }
]
